Test system: MDA-MB-468 breast
Assay summary: NCI-60 one-dose screen, 48 h (100 = growth as untreated, 0 = no growth, -100 = all killed)
Measurement parameters: 10 µM unless noted
This is part of a sample that, as a whole, favours compounds with a hit. Of some 83,000 tested, about 20% had one in any assay.
Recorded endpoint: growth (%)
Use % as the unit, but write only the number.

Please review the entries below; each comes with its answer.
**Query** Report measured growth; entry is Cc1ccc(C(=O)C(Br)C(Br)c2ccccc2)cc1 (stereo unspecified)
**Result** 42.8

**Query** Report measured growth; entry is `C=C(C)[C@@H]1CC[C@]2(CO)CC[C@]3(C)[C@H](CC[C@@H]4[C@@]5(C)CCCNC(C)(C)[C@@H]5CC[C@]43C)[C@@H]12`
**Result** 11.7

**Query** Report measured growth; entry is `COc1ccc2c(N)ncc(C#Cc3cc(C(=O)Nc4ccc(CN5CCN(C)CC5)c(C(F)(F)F)c4)cnc3C)c2c1`
**Result** 46.7

**Query** Report measured growth; entry is `Cn1cc(Nc2nccc(-c3ccc(N4CCCC4)c(C#N)c3)n2)cn1`
**Result** 61.8

Others:
**Query** Report measured growth; entry is `C#CCn1c(C)cc(C)c(C#N)c1=O`
**Result** 132

**Query** Report measured growth; entry is `COc1cc(Cl)cc(-c2nn(-c3cccc(NC(=O)c4cc(C(F)(F)F)cc(C(F)(F)F)c4)c3)cc2-c2ccncc2)c1`
**Result** 46.5

**Query** Report measured growth; entry is `CN(C)c1ccc(-c2c(NC(C)(C)C)nc3c(OCCc4ccccc4)cccn23)cc1`
**Result** -19.6

**Query** Report measured growth; entry is `Cc1ccc(CNc2ccc(Cl)cc2NCc2ccc(C)c(O)c2)cc1O`
**Result** 32.5

**Query** Report measured growth; entry is Nc1nc2c(c3ncccc13)C(c1cccc(Br)c1)Cc1ncccc1-2 (stereo unspecified)
**Result** 13.7

**Query** Report measured growth; entry is `O=C(O)c1ccc2c(c1)C(=O)c1ccccc1C2=O`
**Result** -2.97

**Query** Report measured growth; entry is `O=C(CCCCCCN1CC(=O)N2[C@@H](c3cccc(Cl)c3)c3[nH]c4ccccc4c3C[C@H]2C1=O)NO`
**Result** 47.2

**Query** Report measured growth; entry is `Nc1nc2nnc(-c3ccccc3)c(-c3ccccc3)n2n1`
**Result** 99.9

**Query** Report measured growth; entry is `c1ccc(CNc2ncnc3ccc(-c4cnc5[nH]ncc5c4)cc23)cc1`
**Result** 50.7

**Query** Report measured growth; entry is `Cc1ccc(S(=O)(=O)NCCCNc2nccc(-c3[nH]c(-c4ccccc4)nc3-c3ccc(F)c(O)c3)n2)cc1`
**Result** 33.9

**Query** Report measured growth; entry is `CC(=O)Nc1c(C)cc(C)cc1C`
**Result** 108

**Query** Report measured growth; entry is `O=C1/C(=C\c2ccc(Br)o2)SC(=S)N1CCc1ccc(O)cc1`
**Result** 28.2
